The measurements presented in this section are drawn from the supplement of paper PMC10201428.

Tested on: VchCAST RNA-guided transposition machinery (E. coli BL21(DE3) host, lacZ target)
Assay: relative integration efficiency (T-RL orientation) vs wild-type transposon end (log2 (normalized fold change)); transposon end mutated: right end (5 bp flank + 75 bp right end); higher = more efficient transposition
Label rule, in plain words: relative integration efficiency (log2) of -0.6 and up is fulfilled, under -0.6 is not fulfilled.

record-sequence: ACATTTGTTGATACAACCATAAAATGATATATACACCCATAAATTGATAATTATCACACCCATAAATTGATATTGCCTCTGATCATAGTCAGACCAACATTGCTACGACCCGTATTCGCACCGACAC
class-name: fulfilled
//
record-sequence: ACATTTGTCGATACAACCCTAAAATGATAATTACACCCATAAATGGATCATTATCACCCCCAATTTAACTATAACGCTCTGATCATAGTCAGACCAACATTGCTACGACCCGTATTCGCACCGACAC
class-name: not fulfilled
//
record-sequence: ACATTTGTTGATACAACCATAAAATGATAATGCCACCCATAAATTGATAATTATCACACCCATAAATTGATATTGCCTCTGATCATAGTCAGACCAACATTGCTACGACCCGTATTCGCACCGACAC
class-name: not fulfilled
//
record-sequence: ACATTTGTTGATACACCCATAAATTGATAATTACACCCATAAATTGATAATTATCACAACCATAAAATGATAATTACTCTGATCATAGTCAGACCAACATTGCTACGACCCGTATTCGCACCGACAC
class-name: fulfilled
//
record-sequence: ACATTTGTTGATACAACCATAAAATGATAATTACTCTGATCACCCATAAATTGATAATTATCAGTGGGTATTTAACTATAACGCATAGTCAGACCAACATTGCTACGACCCGTATTCGCACCGACAC
class-name: not fulfilled

----------
System: VchCAST RNA-guided transposition machinery (E. coli BL21(DE3) host, lacZ target)
Experiment: relative integration efficiency (T-RL orientation) vs wild-type transposon end (log2 (normalized fold change)); transposon end mutated: left end; higher = more efficient transposition

record-sequence: AATGTTGTTGATGCAACCATAAAGTGATATTTAATAGTACTGCGCGACTGAAATCATCATTAAAACGCAACCATATATTGATATCTCACAAAACAACCATAAGTTGATATTTTTGTGAATCGAGTATTTCAGCAAAACTACTGCAGTAAGAA
modifier-sign: =
relative integration efficiency (log2): -4.94

record-sequence: AATGTTGTTGATGCAACCATAAAGTGATATTTAATAATTATTTATAATCAGCAACTTAACCACAAAACAACCATATATTGATATCTCACAAAACAACCATAAGTTGATATGGGGTGTCCGATCTGATTTCAGCAAAACTACTGCAGTAAGAA
modifier-sign: =
relative integration efficiency (log2): -0.33

record-sequence: AATGTTGTTGATGACCAACGCCTGGTCGCGGGGATAATTATTTATAATCAGCAACTTAACCACAAAAACCAACGCGCGGTCGCGAGAACAAAAACCAACGCCCTGTCGCGGGCTGTGAATCGAGTATTTCAGCAAAACTACTGCAGTAAGAA
modifier-sign: <
relative integration efficiency (log2): -10

record-sequence: AATGTTGTTGATGCAACCATAAAGTGATATTTAATAATTATTTATAATCAGCAACTTAACCACAAACAACCATATATTGATATCTCACAAAACAACCATAAGTTGATATTTTTGTGAATCGAGTATTTCAGCAAAACTACTGCAGTAAGAAA
modifier-sign: =
relative integration efficiency (log2): -0.248

----------
Test system: VchCAST RNA-guided transposition machinery (E. coli BL21(DE3) host, lacZ target)
Experiment: relative integration efficiency (T-RL orientation) vs wild-type transposon end (log2 (normalized fold change)); transposon end mutated: right end (5 bp flank + 75 bp right end); higher = more efficient transposition
Label rule, in plain words: relative integration efficiency (log2) of -3 and up is 1 (yes), under -3 is 0 (no).

record-sequence: ACATTTGCTGATACTACCATATAATGATAATAACACCCATAAAATGATAATTATCACACCCAATTTAACTATAACGCTCTGATCATAGTCAGACCAACATTGCTACGACCCGTATTCGCACCGACAC
class-name: 1 (yes)

record-sequence: ACATTTGTTGATACAACCATAAAATGATAATTAATAATTATTTATAATCAGCAACTTAACCACACCCATAAATTGATAATTATCAACAAACGCCCGGTCGCGGTACTCTGATCATAGTCAGACCAAC
class-name: 1 (yes)

record-sequence: ACATTTGTTGATACAACCATAAAATGATAATTACACCCATAAATTGATAATTATCACACCCATAAATTGATATTGCCTCTGATAACTTCGTATAAAGTATCCTATACGAAGTTATTCGCACCGACAC
class-name: 1 (yes)

record-sequence: ACATTTGTTGATACAACCATAAAATGGTAATTCCACCCCTACATTGATAATTATCACACCCAATTTAACTATAACGCTCTGATCATAGTCAGACCAACATTGCTACGACCCGTATTCGCACCGACAC
class-name: 0 (no)

record-sequence: ACATTTGTTGATACAACCATAAAATGATAATTACCACCCCTAAATTGATAATTATCACACCCATTTAACTATAACGCTCTGATCATAGTCAGACCAACATTGCTACGACCCGTATTCGCACCGACAC
class-name: 0 (no)

----------
Parameter: relative integration efficiency (log2). Scope: all listed entries.
Tested on: VchCAST RNA-guided transposition machinery (E. coli BL21(DE3) host, lacZ target)
Assay: relative integration efficiency (T-LR orientation) vs wild-type transposon end (log2 (normalized fold change)); transposon end mutated: right end (5 bp flank + 75 bp right end); higher = more efficient transposition
reported-endpoint: relative integration efficiency (log2)

record-sequence: ACATTTGTTGATACAACCATAAAATGATAATTACAACCATAAGTTGATATTTTTCACAACCATATATTGATATCTCCTCTGATCATAGTCAGACCAACATTGCTACGACCCGTATTCGCACCGACAC
reported-endpoint: relative integration efficiency (log2)
reported-measurement: 0.235

record-sequence: ACATTTGTCGATCCAACCATAAAATGATAATTACACCCATAAATGGATAATTATCACACCCAATTTAACTATAACGCTCTGATCATAGTCAGACCAACATTGCTACGACCCGTATTCGCACCGACAC
reported-endpoint: relative integration efficiency (log2)
reported-measurement: 1.38

record-sequence: ACATTTGTTGATACAACCATAAAATGATAATTACACCCATAAATTGATAATTATCACACCCATAAATTGATATTTAAGAGGATCATAGTCAGACCAACATTGCTACGACCCGTATTCGCACCGACAC
reported-endpoint: relative integration efficiency (log2)
reported-measurement: 0.08

----------
Test system: VchCAST RNA-guided transposition machinery (E. coli BL21(DE3) host, lacZ target)
Test: relative integration efficiency (T-RL orientation) vs wild-type transposon end (log2 (normalized fold change)); transposon end mutated: right end (5 bp flank + 75 bp right end); higher = more efficient transposition

record-sequence: ACATTTGTTGATACAACCATAAAATCATCATTACCCCCATCAATTGATAATTATCACACCCAATTTAACTATAACGCTCTGATCATAGTCAGACCAACATTGCTACGACCCGTATTCGCACCGACAC
relative integration efficiency (log2): -5.41
--
record-sequence: ACATTTGTTGATACAACCATAAAGTGATATTTACACCCATAAATTGATATTGCTCAGTGGGTATTTAACTATAACGCTCTGATCATAGTCAGACCAACATTGCTACGACCCGTATTCGCACCGACAC
relative integration efficiency (log2): -0.797
--
record-sequence: ACATTTGTTGATACACCCATAAATTGATAATTACACCCATAAATTGATATTGCTCACAACCATAAAATGATAATTACTCTGATCATAGTCAGACCAACATTGCTACGACCCGTATTCGCACCGACAC
relative integration efficiency (log2): -0.918

----------
Test system: VchCAST RNA-guided transposition machinery (E. coli BL21(DE3) host, lacZ target)
Assay: relative integration efficiency (T-RL orientation) vs wild-type transposon end (log2 (normalized fold change)); transposon end mutated: right end (5 bp flank + 75 bp right end); higher = more efficient transposition
Label rule, in plain words: relative integration efficiency (log2) of -1 and up is Met, under -1 is Not met.

record-sequence: ACATTTGTTGATACAACCATTTAATGATAATTACACCCATAAATTGATAATTATCACACCCATAAATTGATATTGCCTCTGATCATAGTCAGACCAACATTGCTACGACCCGTATTCGCACCGACAC
class-name: Met
--
record-sequence: ACATTTGTCGATACAACCATAAAATGATAATTACCACCCCTACATTGATAATTATCACACCCATTTAACTATAACGCTCTGATCATAGTCAGACCAACATTGCTACGACCCGTATTCGCACCGACAC
class-name: Not met
--
record-sequence: ACATTTGTTGATACAACCATAAGTTGATATTTTCAACCATAAAATGATAATTATCACAACCATATATTGATATCTCCTCTGATCATAGTCAGACCAACATTGCTACGACCCGTATTCGCACCGACAC
class-name: Met
--
record-sequence: ACATTTGTTGATACAACCATAAAATGATTATTACACCCATAAATTGATAATGATGACACCGAATTTAACTATAACGCTCTGATCATAGTCAGACCAACATTGCTACGACCCGTATTCGCACCGACAC
class-name: Not met
--
record-sequence: ACATTTGTTGATACAACCATAAAATGAATTATACACCCATAAATTGATAATTATCACACCCATAAATTGATATTGCCTCTGATCATAGTCAGACCAACATTGCTACGACCCGTATTCGCACCGACAC
class-name: Met
